- TESTED ON: TbAQP2/HAPT1 (Trypanosoma brucei brucei)
- Sequence (Q6ZXT3 whole entry): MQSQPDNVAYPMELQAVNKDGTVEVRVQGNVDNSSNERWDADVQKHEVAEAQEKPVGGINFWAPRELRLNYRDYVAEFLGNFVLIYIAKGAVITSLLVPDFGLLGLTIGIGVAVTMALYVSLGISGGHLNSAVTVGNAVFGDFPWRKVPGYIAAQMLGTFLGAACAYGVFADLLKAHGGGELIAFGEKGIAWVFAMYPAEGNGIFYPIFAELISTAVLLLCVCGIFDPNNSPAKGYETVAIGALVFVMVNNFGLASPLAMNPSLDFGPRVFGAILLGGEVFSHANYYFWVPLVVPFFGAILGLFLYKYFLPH
- EXPERIMENT: cell-based
- Format: cell-based
- PARTICULARS: Ki
pKi: −log10 of the molar value.

{"COMPOUND": "CNC(=N)c1ccc(OCCCCCOc2ccc(C(=N)NC)cc2)cc1", "COMPARATOR": "=", "pKi": 6.52}
{"COMPOUND": "c1cc(NC2=NCCN2)ccc1CCc1ccc(NC2=NCCN2)cc1", "COMPARATOR": "=", "pKi": 4.38}
{"COMPOUND": "Cl.Cl.N=C(N)c1ccc(OCCCOc2ccc(C(=N)N)cc2)cc1.O.O", "COMPARATOR": "=", "pKi": 5.18}
{"COMPOUND": "c1cc(C2=NCCN2)ccc1OCCCCCOc1ccc(C2=NCCN2)cc1", "COMPARATOR": "=", "pKi": 6.40}
{"COMPOUND": "N=C(N)c1ccc(OCCCCCOc2ccc(C(=N)N)cc2Cl)c(Cl)c1", "COMPARATOR": "=", "pKi": 6.29}
{"COMPOUND": "N=C(N)c1ccc(OCCCCCOc2ccc(N)cc2)cc1", "COMPARATOR": "=", "pKi": 6.37}
{"COMPOUND": "N=C(N)c1ccc(-c2csc(-c3ccc(C(=N)N)cc3)c2)cc1", "COMPARATOR": "=", "pKi": 4.86}
{"COMPOUND": "N=C(N)c1ccc(SCCCCCSc2ccc(C(=N)N)cc2)cc1", "COMPARATOR": "=", "pKi": 5.70}
{"COMPOUND": "Cn1c(-c2ccc(C(=N)N)cc2)ccc1-c1ccc(C(=N)N)cc1", "COMPARATOR": "=", "pKi": 4.15}
{"COMPOUND": "Cn1c(-c2ccc(-c3ccc(C(=N)N)cc3)o2)nc2ccccc21", "COMPARATOR": "=", "pKi": 4.78}
{"COMPOUND": "Cl.Cl.c1cc(-c2ccc(-c3ccc(CCC4=NCCN4)cc3)o2)ccc1CCC1=NCCN1", "COMPARATOR": "=", "pKi": 4.22}
{"COMPOUND": "COc1ccc(-c2ccc(-c3ccc(C(=N)N)cc3)o2)cc1", "COMPARATOR": "=", "pKi": 4.74}
{"COMPOUND": "N=C(N)c1ccc(NCCCCCNc2ccc(C(=N)N)cc2)cc1", "COMPARATOR": "=", "pKi": 5.20}
{"COMPOUND": "N=C(N)c1ccc(-c2ccc(-c3ccc(C(=N)N)nc3)o2)cn1", "COMPARATOR": "=", "pKi": 3.78}
{"COMPOUND": "N=C(N)c1ccc(/N=N/Nc2ccc(C(=N)N)cc2)cc1", "COMPARATOR": "=", "pKi": 4.20}
{"COMPOUND": "CC[n+]1c(-c2ccccc2)c2cc(N)ccc2c2ccc(N)cc21", "COMPARATOR": "=", "pKi": 4.01}
{"COMPOUND": "N=C(N)c1ccc(OCCCCCOc2ccc(C(=N)N)cc2)cc1", "COMPARATOR": "=", "pKi": 7.44}
{"COMPOUND": "N=C(N)c1ccc(O)cc1 [4-hydroxybenzamidine]", "COMPARATOR": "=", "pKi": 2.54}
{"COMPOUND": "N=C(N)c1ccc(OCCCCCOc2ccc(C(=N)N)cc2C(N)=O)c(C(N)=O)c1", "COMPARATOR": "<", "pKi": 4.00}
{"COMPOUND": "N=C(N)c1ccc(-c2ccc(-c3ccc(C(=N)N)cc3)[se]2)cc1", "COMPARATOR": "=", "pKi": 6.14}
{"COMPOUND": "N=C(N)c1ccc(OCCCCCCOc2ccc(C(=N)N)cc2)cc1", "COMPARATOR": "=", "pKi": 7.24}
{"COMPOUND": "N=C(N)c1ccc(OCCCOc2ccc(C(=O)O)cc2)cc1", "COMPARATOR": "<", "pKi": 4.00}
{"COMPOUND": "N=C(N)c1ccc(-c2ccc(-c3ccc(-c4ccc(C(=N)N)cc4)o3)o2)cc1", "COMPARATOR": "=", "pKi": 7.14}
{"COMPOUND": "N=C(N)CCc1ccc(-c2ccc(-c3ccc(CCC(=N)N)cc3)o2)cc1", "COMPARATOR": "=", "pKi": 4.49}
{"COMPOUND": "N=C(N)CCc1ccc(-c2ccc(-c3ccc(CCC(=N)N)cc3)s2)cc1", "COMPARATOR": "=", "pKi": 6.40}
{"COMPOUND": "Cl.Cl.c1cc(-c2ccc(-c3ccc(CCC4=NCCN4)cc3)s2)ccc1CCC1=NCCN1", "COMPARATOR": "=", "pKi": 5.52}
{"COMPOUND": "N=C(N)c1ccc(OCCCCCCCOc2ccc(C(=N)N)cc2)cc1", "COMPARATOR": "=", "pKi": 6.91}
{"COMPOUND": "N=C(N)c1ccc(OCCCCCOc2ccc(C(=N)N)cn2)nc1", "COMPARATOR": "=", "pKi": 5.05}
{"COMPOUND": "N=C(N)c1ccc(S(=O)(=O)CCCCCS(=O)(=O)c2ccc(C(=N)N)cc2)cc1", "COMPARATOR": "<", "pKi": 3.82}
{"COMPOUND": "N=C(N)c1ccc(/C=C/c2ccc(C(=N)N)cc2)cc1", "COMPARATOR": "=", "pKi": 4.26}
{"COMPOUND": "CC[n+]1c(-c2ccccc2)c2cc(N/N=N/c3cccc(C(=N)N)c3)ccc2c2ccc(N)cc21", "COMPARATOR": "=", "pKi": 5.46}
{"COMPOUND": "N=C(N)c1ccc(-c2csc(-c3ccc(C(=N)N)cc3)n2)cc1 [ER1004, 4,4'-(thiazole-2,4-diyl)dibenzimidamide]", "COMPARATOR": "=", "pKi": 4.16}
{"COMPOUND": "N=C(N)Nc1ccc(-c2ccc(-c3ccc(NC(=N)N)cc3)s2)cc1", "COMPARATOR": "=", "pKi": 6.54}
{"COMPOUND": "O=C(CCc1ccc(O)cc1)c1c(O)cc(O)cc1O", "COMPARATOR": "=", "pKi": 5.75}
{"COMPOUND": "Cl.Cl.N=C(N)c1ccc(OCCOc2ccc(C(=N)N)cc2)cc1.O.O", "COMPARATOR": "<", "pKi": 4.00}
{"COMPOUND": "N=C(N)c1ccc(OCCCCCCCCOc2ccc(C(=N)N)cc2)cc1", "COMPARATOR": "=", "pKi": 5.67}
{"COMPOUND": "N=C(N)c1ccc(OCCCCOc2ccc(C(=N)N)cc2)cc1", "COMPARATOR": "=", "pKi": 5.41}
{"COMPOUND": "N=C(N)c1ccc(OCCCCCOc2ccc(C(=N)N)nc2)cn1", "COMPARATOR": "<", "pKi": 3.60}
{"COMPOUND": "N=C(N)c1ccc(-c2ccc(-c3ccc(C(=N)N)cc3)o2)cc1", "COMPARATOR": "=", "pKi": 4.42}

* * *

- TESTED ON: TbAQP2/HAPT1 (Trypanosoma brucei brucei)
- EXPERIMENT: cell-based
- Type: cell-based
- PARTICULARS: read-out: HAPT Ki, AVG
pKi: −log10 of the molar value.

{"MOLECULE": "N=C(N)c1ccc(-c2cc3ccc(C(=N)N)cc3[nH]2)cc1 [DAPI]", "pKi": 4.58}

* * *

Below is a list of entries, each paired with its recorded ΔG0 value.
- TESTED ON: TbAQP2/HAPT1 (Trypanosoma brucei brucei)
- EXPERIMENT: cell-based
- Format: cell-based
QUANTITY: ΔG0 (kcal/mol)

{"COMPOUND": "N=C(N)c1ccc(/N=N/Nc2ccc(C(=N)N)cc2)cc1 [Diminazene]", "QUANTITY": "ΔG0", "VALUE OBSERVED": -5.74}
{"COMPOUND": "CON1CCN=C1Nc1ccc(CCc2ccc(NC3=NCCN3OC)cc2)cc1 [CRMI8]", "QUANTITY": "ΔG0", "VALUE OBSERVED": -5.83}
{"COMPOUND": "N=C(N)c1ccc(-c2ccc(-c3ccc(-c4ccc(C(=N)N)cc4)o3)o2)cc1 [DB914]", "QUANTITY": "ΔG0", "VALUE OBSERVED": -9.73}
{"COMPOUND": "N=C(N)c1ccc(-c2ccc(-c3ccc(C(=N)N)cc3)[se]2)cc1 [DB1213]", "QUANTITY": "ΔG0", "VALUE OBSERVED": -8.39}

* * *

- System: T. b. brucei 2T1
- EXPERIMENT: Drug sensitivity assay (resazurin)
- Assay type: cell-based
- PARTICULARS: Trypanosoma brucei, 48 h drug + 24 h resazurin, read-out: EC50 control 2T1 AVG
pEC50: −log10 of the molar value.
Classification field: TRUE = pEC50 at or over 7; FALSE = pEC50 under 7.

{"MOLECULAR STRING": "c1cc(C2=NCCN2)ccc1OCCCCCOc1ccc(C2=NCCN2)cc1", "ASSIGNED LABEL": "FALSE"}
{"MOLECULAR STRING": "N=C(N)c1ccc(SCCCCCSc2ccc(C(=N)N)cc2)cc1", "ASSIGNED LABEL": "TRUE"}
{"MOLECULAR STRING": "CNC(=N)c1ccc(OCCCCCOc2ccc(C(=N)NC)cc2)cc1", "ASSIGNED LABEL": "FALSE"}
{"MOLECULAR STRING": "N=C(N)c1ccc(OCCCCCOc2ccc(N)cc2)cc1", "ASSIGNED LABEL": "FALSE"}
{"MOLECULAR STRING": "N=C(N)c1ccc(NCCCCCNc2ccc(C(=N)N)cc2)cc1", "ASSIGNED LABEL": "TRUE"}
{"MOLECULAR STRING": "N=C(N)c1ccc(OCCCCCOc2ccc(C(=N)N)cc2Cl)c(Cl)c1", "ASSIGNED LABEL": "FALSE"}
{"MOLECULAR STRING": "N=C(N)c1ccc(OCCCCCOc2ccc(C(=N)N)cn2)nc1", "ASSIGNED LABEL": "TRUE"}
{"MOLECULAR STRING": "N=C(N)c1ccc(-c2ccc(-c3ccc(C(=N)N)cc3)o2)cc1", "ASSIGNED LABEL": "TRUE"}
{"MOLECULAR STRING": "N=C(N)c1ccc(OCCCCCOc2ccc(C(=N)N)cc2)cc1", "ASSIGNED LABEL": "TRUE"}
{"MOLECULAR STRING": "Cc1ccc(OCCCCCOc2ccc(C(=N)N)cc2)cc1", "ASSIGNED LABEL": "FALSE"}
{"MOLECULAR STRING": "CC[n+]1c(-c2ccccc2)c2cc(N)ccc2c2ccc(N)cc21", "ASSIGNED LABEL": "FALSE"}
